ASSAY NOTES: Cmax in rat at 3 mg/kg, po
Format: ADME, organism-based
Parameters: dose 3 mg/kg, route oral
MEASUREMENT CONTEXT: in vivo
MEASURED METRIC: Cmax
# output: number + unit

Please give the documented Cmax of CCC(CC)Nc1c2c(nc3c(-c4ccc(OC)cc4Cl)c(C)nn13)CCC2 [ONO-2333MS] 87.1 ng/mL

---

ASSAY NOTES: Volume of distribution at steady state in rat at 0.3 mg/kg, iv
Type: ADME, organism-based
Parameters: dose 0.3 mg/kg, route intravenous
MEASUREMENT CONTEXT: in vivo, read-out: Vdss
MEASURED METRIC: Vd
# output: number + unit

Please give the documented Vd of CCC(CC)Nc1c2c(nc3c(-c4ccc(OC)cc4Cl)c(C)nn13)CCC2 [ONO-2333MS] 1.78 L/kg

---

ASSAY NOTES: Tmax in rat at 3 mg/kg, po
Format: ADME, organism-based
Set-up: dose 3 mg/kg, route oral
MEASUREMENT CONTEXT: in vivo
MEASURED METRIC: Tmax (h)
Give the value in h but do not write h after it.

Please give the documented Tmax of CCC(CC)Nc1c2c(nc3c(-c4ccc(OC)cc4Cl)c(C)nn13)CCC2 [ONO-2333MS] 1

---

ASSAY NOTES: Total clearance in rat at 0.3 mg/kg, iv
Format: ADME, organism-based
Parameters: dose 0.3 mg/kg, route intravenous
MEASUREMENT CONTEXT: in vivo
MEASURED METRIC: clearance (mL/min/kg)
Give the value in mL/min/kg but do not write mL/min/kg after it.

Please give the documented clearance of CCC(CC)Nc1c2c(nc3c(-c4ccc(OC)cc4Cl)c(C)nn13)CCC2 [ONO-2333MS] 18

---

SYSTEM UNDER TEST: Corticotropin-releasing factor receptor 1 (Homo sapiens, UniProt P34998)
ASSAY NOTES: Antagonist activity at human corticotropin-releasing factor receptor 1 expressed in CHO-K1 cells assessed as inhibition of CRF-induced cAMP production after 15 mins by enzyme immunoassay
MEASURED METRIC: pEC50
# log scale: pEC50 equals minus log10 of the concentration in mol/L

A selection of reference data follows.
[[record]]
cpd_smiles = "CCC(CC)Nc1c2c(nc3c(-c4ccc(C)cc4C)c(C)nn13)CCC2"
result_value = 6.04

[[record]]
cpd_smiles = "CCC(CC)Nc1c2c(nc3c(-c4ccc(OC)cc4C)c(C)nn13)CSC2"
result_value = 6.82

[[record]]
cpd_smiles = "CCC(CC)Nc1c(C)c(C)nc2c(-c3ccc(OC)cc3Cl)c(C)nn12"
result_value = 7.00


Please give the documented pEC50 of CCC(CC)Nc1c2c(nc3c(-c4cc(C)c(OC)cc4C)c(C)nn13)CCC2 7.33

Please give the documented pEC50 of CCC(CC)Nc1c2c(nc3c(-c4ccc(OC)cc4C)c(C)nn13)COC2 7.12

---

SYSTEM UNDER TEST: Corticotropin-releasing factor receptor 1 (Rattus norvegicus)
Sequence (P35353 whole entry): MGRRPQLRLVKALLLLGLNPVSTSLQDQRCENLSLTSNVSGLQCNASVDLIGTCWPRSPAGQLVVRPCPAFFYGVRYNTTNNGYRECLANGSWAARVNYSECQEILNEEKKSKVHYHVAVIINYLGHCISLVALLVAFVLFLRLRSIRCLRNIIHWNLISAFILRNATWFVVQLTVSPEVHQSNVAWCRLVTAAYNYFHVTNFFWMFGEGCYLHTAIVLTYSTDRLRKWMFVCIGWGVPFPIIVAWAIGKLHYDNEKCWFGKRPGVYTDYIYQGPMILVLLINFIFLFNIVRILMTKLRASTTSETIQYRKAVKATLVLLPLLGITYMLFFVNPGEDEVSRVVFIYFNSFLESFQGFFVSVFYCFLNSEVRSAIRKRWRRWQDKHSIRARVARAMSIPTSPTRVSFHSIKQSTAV
ASSAY NOTES: Antagonist activity at rat corticotropin-releasing factor receptor 1 expressed in CHO-K1 cells assessed as inhibition of CRF-induced cAMP production after 15 mins by enzyme immunoassay
MEASURED METRIC: pEC50
# log scale: pEC50 equals minus log10 of the concentration in mol/L

Quote Corticotropin-releasing factor receptor 1 (Rattus norvegicus) pEC50 for entry CCC(CC)Nc1c2c(nc3c(-c4ccc(OC)cc4Cl)c(C)nn13)CCC2 [ONO-2333MS] . 7.40

---

ASSAY NOTES: Half life in rat at 3 mg/kg, po
Assay type: ADME, organism-based
Design: dose 3 mg/kg, route oral
MEASUREMENT CONTEXT: in vivo
MEASURED METRIC: half-life (h)
Give the value in h but do not write h after it.

Please give the documented half-life of CCC(CC)Nc1c2c(nc3c(-c4ccc(OC)cc4Cl)c(C)nn13)CCC2 [ONO-2333MS] 7.8

---

SYSTEM UNDER TEST: Corticotropin-releasing factor receptor 1 (Rattus norvegicus, UniProt P35353)
Sequence (P35353 whole entry): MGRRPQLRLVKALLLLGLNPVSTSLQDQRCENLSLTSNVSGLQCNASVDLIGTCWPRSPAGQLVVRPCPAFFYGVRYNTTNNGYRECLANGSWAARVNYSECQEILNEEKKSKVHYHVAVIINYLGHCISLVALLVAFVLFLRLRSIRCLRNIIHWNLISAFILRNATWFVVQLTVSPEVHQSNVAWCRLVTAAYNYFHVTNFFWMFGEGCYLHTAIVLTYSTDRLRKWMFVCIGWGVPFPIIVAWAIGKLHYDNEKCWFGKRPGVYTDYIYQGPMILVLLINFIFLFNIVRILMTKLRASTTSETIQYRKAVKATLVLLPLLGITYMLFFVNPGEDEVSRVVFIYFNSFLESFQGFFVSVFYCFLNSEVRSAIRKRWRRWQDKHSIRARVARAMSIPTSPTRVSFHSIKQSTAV
ASSAY NOTES: Displacement of [125I]CRF from corticotropin-releasing factor receptor 1 in rat brain membranes after 2 hrs by gamma counting
Assay type: cell membranes
MEASURED METRIC: pIC50
# log scale: pIC50 equals minus log10 of the concentration in mol/L

Please give the documented pIC50 of CCC(CC)Nc1c2c(nc3c(-c4ccc(OC)cc4Cl)c(C)nn13)CCC2 [ONO-2333MS] 8.15

---

ASSAY NOTES: AUC (infinity) in rat at 3 mg/kg, po
Assay type: ADME, organism-based
Design: time infinity, dose 3 mg/kg, route oral
MEASUREMENT CONTEXT: plasma
MEASURED METRIC: AUC(0-inf) (ng·h/mL)
Give the value in ng·h/mL but do not write ng·h/mL after it.

Please give the documented AUC(0-inf) of CCC(CC)Nc1c2c(nc3c(-c4ccc(OC)cc4Cl)c(C)nn13)CCC2 [ONO-2333MS] 608

---

# reported IC50; entries follow
SYSTEM UNDER TEST: Corticotropin-releasing factor receptor 1 (Homo sapiens, UniProt P34998)
ASSAY NOTES: Displacement of [125I]CRF from human corticotropin-releasing factor receptor 1 expressed in CHO-K1 cells after 2 hrs by gamma counting
Assay type: cell-based
# output: number + unit

A selection of reference data follows.
[[record]]
cpd_smiles = "CCC(CC)Nc1c2c(nc3c(-c4cc(C)ccc4C)c(C)nn13)CCC2"
result_value = "820 nM"

[[record]]
cpd_smiles = "CCC(CC)Nc1c(C)c(C)nc2c(-c3ccc(OC)cc3Cl)c(C)nn12"
result_value = "49 nM"

[[record]]
cpd_smiles = "CCC(CC)Nc1c2c(nc3c(-c4ccc(OC)cc4C)c(C4CCC4)nn13)CCC2"
result_value = "490 nM"

[[record]]
cpd_smiles = "CCC(CC)Nc1c2c(nc3c(-c4ccc(OC)cc4Cl)c(C)nn13)COC2"
result_value = "22 nM"

[[record]]
cpd_smiles = "CCC(CC)Nc1c2c(nc3c(-c4ccc(OC)cc4Cl)c(C)nn13)CCO2"
result_value = "7 nM"


Please give the documented IC50 of CCOc1ccc(-c2c(C)nn3c(NC(CC)CC)c4c(nc23)CCC4)c(Cl)c1 71 nM

Please give the documented IC50 of CCC(CC)Nc1cc(C)nc2c(-c3ccc(OC)cc3Cl)c(C)nn12 6 nM

Please give the documented IC50 of CCC(CC)Nc1c2c(nc3c(-c4ccc(OC)cc4C)c(C)nn13)CCO2 31 nM

Please give the documented IC50 of CCC(CC)Nc1c2c(nc3c(-c4ccc(OC)cc4C)c(C)nn13)CCC2 37 nM

Please give the documented IC50 of CCC(CC)Nc1c2c(nc3c(-c4ccc(OC)cc4C)c(C)nn13)CCN2 170 nM

---

SYSTEM UNDER TEST: Corticotropin-releasing factor receptor 1 (Homo sapiens, UniProt P34998)
Sequence (P34998 whole entry): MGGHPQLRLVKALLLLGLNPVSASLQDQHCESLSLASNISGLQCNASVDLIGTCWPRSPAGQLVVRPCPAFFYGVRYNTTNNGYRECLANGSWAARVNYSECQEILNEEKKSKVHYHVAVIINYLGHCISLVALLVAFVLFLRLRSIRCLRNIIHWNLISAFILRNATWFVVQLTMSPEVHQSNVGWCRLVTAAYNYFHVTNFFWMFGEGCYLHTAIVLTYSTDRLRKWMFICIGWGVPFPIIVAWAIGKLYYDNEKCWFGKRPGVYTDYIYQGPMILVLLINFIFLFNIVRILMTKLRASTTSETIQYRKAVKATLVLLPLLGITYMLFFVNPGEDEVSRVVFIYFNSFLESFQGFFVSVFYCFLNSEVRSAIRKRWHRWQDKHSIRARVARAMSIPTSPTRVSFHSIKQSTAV
ASSAY NOTES: Displacement of [125I]CRF from human corticotropin-releasing factor receptor 1 expressed in CHO-K1 cells after 2 hrs by gamma counting
Assay type: cell-based
MEASURED METRIC: IC50 (nM)
Give the value in nM but do not write nM after it.

A selection of reference data follows.
[[record]]
cpd_smiles = "CCC(CC)Nc1c2c(nc3c(-c4ccc(OC(F)(F)F)cc4Cl)c(C)nn13)CCC2"
system_under_test = "Corticotropin-releasing factor receptor 1 (Homo sapiens, UniProt P34998)"
measured_metric = "IC50"
readout_units = "nM"
result_value = 15

[[record]]
cpd_smiles = "CCC(CC)Nc1c2c(nc3c(-c4ccc(OC)cc4C)c(C)nn13)CSC2"
system_under_test = "Corticotropin-releasing factor receptor 1 (Homo sapiens, UniProt P34998)"
measured_metric = "IC50"
readout_units = "nM"
result_value = 37

[[record]]
cpd_smiles = "CCC(CC)Nc1c2c(nc3c(-c4ccc(OC(F)F)cc4Cl)c(C)nn13)CCC2"
system_under_test = "Corticotropin-releasing factor receptor 1 (Homo sapiens, UniProt P34998)"
measured_metric = "IC50"
readout_units = "nM"
result_value = 3


// moving on: another record for IC50
Please give the documented IC50 of CCC(CC)Nc1c2c(nc3c(-c4ccc(Cl)cc4Cl)c(C)nn13)CCC2 37
